experimental_target: T1, human LTBP1-proTGFβ1 complex (human, UniProt Q14766 347-1721; P01137 30-390)
T1 construct: Large latent complex: one presenting molecule disulfide-linked to a proTGFβ1 dimer; also called Hu LTBP1-proTGFβ1; huLTBP1 proTGFβ1
T1 sequence (Q14766 347-1721 limits assumed, chain 1 of 2): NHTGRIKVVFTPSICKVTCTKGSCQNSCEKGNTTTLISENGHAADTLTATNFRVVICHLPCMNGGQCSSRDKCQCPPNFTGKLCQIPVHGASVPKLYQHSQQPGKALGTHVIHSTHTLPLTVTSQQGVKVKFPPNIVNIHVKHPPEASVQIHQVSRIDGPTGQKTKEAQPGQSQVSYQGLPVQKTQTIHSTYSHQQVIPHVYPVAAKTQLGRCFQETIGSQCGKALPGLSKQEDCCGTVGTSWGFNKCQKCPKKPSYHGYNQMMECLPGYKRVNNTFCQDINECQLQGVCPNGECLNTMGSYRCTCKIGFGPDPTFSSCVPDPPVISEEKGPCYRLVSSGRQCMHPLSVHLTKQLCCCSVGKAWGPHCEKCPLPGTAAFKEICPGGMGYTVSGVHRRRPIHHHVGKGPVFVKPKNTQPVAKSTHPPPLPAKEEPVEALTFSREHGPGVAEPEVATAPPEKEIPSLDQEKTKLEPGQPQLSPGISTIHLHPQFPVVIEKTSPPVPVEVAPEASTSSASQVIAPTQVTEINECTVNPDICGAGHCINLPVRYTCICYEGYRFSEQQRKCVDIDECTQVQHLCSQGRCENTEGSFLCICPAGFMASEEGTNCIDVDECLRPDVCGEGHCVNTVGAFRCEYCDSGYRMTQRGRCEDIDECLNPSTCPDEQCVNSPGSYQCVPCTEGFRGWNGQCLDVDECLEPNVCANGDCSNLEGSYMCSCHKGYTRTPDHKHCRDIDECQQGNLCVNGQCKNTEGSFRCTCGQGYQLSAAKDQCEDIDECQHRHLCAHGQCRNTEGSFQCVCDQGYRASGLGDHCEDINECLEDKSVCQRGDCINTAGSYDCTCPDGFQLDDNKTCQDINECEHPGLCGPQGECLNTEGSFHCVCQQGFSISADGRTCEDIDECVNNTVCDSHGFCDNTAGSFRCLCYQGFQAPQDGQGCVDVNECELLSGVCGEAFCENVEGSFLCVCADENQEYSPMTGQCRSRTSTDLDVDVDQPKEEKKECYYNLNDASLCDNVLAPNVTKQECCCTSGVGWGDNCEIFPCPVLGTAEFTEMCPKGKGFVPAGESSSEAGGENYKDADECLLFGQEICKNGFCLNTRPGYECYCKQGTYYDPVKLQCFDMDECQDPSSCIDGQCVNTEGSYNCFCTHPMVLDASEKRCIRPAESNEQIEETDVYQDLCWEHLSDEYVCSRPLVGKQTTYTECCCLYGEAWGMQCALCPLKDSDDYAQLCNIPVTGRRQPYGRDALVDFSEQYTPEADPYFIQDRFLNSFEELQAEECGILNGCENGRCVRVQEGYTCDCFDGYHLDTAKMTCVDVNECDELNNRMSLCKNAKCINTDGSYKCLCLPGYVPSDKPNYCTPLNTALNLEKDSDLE
T1 sequence (P01137 30-390 limits assumed, chain 2 of 2): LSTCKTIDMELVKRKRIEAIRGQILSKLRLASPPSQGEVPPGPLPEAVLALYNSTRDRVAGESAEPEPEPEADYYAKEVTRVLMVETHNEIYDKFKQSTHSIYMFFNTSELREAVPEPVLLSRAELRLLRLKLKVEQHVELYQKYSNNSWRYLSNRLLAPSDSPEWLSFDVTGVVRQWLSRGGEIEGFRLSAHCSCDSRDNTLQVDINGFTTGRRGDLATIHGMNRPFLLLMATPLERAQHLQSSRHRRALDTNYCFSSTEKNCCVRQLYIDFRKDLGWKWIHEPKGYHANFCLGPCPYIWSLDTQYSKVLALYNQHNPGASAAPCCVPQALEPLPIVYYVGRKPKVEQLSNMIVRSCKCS
assay_remarks: SPR Biacore 8K, Fab over captured antigen
measurement_name: koff (s⁻¹)

{"binder": "SR-AB61-HuFab (Fab, V domains shown, Human Fab; also called SR-AB61 Fab) VH: QVQLVESGGGVVQPGRSLRLSCAASGFTFRSYVMHWVRQAPGKGLEWVAVISHEGSGKYYADSVKGRFTISRDNSKNTLYLQMNSLRAEDTAVYYCALPRIAARRGGFGTWGQGTLVTVSS VL: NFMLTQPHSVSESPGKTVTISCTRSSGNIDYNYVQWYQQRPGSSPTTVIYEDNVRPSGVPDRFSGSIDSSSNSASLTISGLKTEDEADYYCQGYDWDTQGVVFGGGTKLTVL", "measurement_name": "koff", "readout_units": "s⁻¹", "experimental_value": 0.000155}
